# experimental target: UniProt P01116
# Sequence (P01116 with tags, fused parts or gaps isoform P01116-2): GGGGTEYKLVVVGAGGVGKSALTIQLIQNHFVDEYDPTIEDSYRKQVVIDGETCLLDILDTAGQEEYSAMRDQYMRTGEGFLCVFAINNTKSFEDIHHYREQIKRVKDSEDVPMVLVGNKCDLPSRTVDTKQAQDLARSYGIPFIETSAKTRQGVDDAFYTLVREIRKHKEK
# protocol notes: SOS-catalyzed nucleotide exchange assay (Procedure A, TR-FRET), KRAS-WT
# Type: biochemical
# test context: nucleotide exchange, read-out: KRAS WT GNE IC50
Answer each item with its documented pIC50.
One number for each entry, as −log10 of the molar value.

[
  {
    "compound": "Cc1cc2[nH]ncc2c(-c2nccc3c2sc2nc(OC[C@@]45CCCN4C[C@H](F)C5)nc(NC4COC4)c23)c1C(F)(F)F [Ex-184]",
    "reported endpoint": "pIC50",
    "number": 6.09
  },
  {
    "compound": "CCC1c2c(cc3[nH]ncc3c2-c2nccc3c2sc2nc(OC[C@@]45CCCN4C[C@H](F)C5)nc(N4CCOC[C@@](C)(O)C4)c23)CC1(F)F (single isomer, unassigned) [Ex-108]",
    "reported endpoint": "pIC50",
    "number": 8.51
  }
]

Please look at the following compound next.
Form field: pIC50 recorded for C[C@@]1(O)COCCN(c2nc(OC[C@]3(CN4CC5(CCO5)C4)CC3(F)F)nc3sc4c(-c5c(C6(F)CC6)c(Cl)cc6[nH]ncc56)nccc4c23)C1 [Ex-265] with UniProt P01116 (enter value)
7.61
